Hello, the source for this data is patent US9867811B2, in case you need it.

Target: CETP (Homo sapiens, UniProt P11597)
Construct: Human serum samples were obtained from the Novartis Institutes for BioMedical Research donor program; tissue Novartis donor program; Bioreclamation (Westbury, N.Y.); Uniglobe (Reseda, Calif.); host or cells: pooled human donor serum
Sequence (P11597 18-493): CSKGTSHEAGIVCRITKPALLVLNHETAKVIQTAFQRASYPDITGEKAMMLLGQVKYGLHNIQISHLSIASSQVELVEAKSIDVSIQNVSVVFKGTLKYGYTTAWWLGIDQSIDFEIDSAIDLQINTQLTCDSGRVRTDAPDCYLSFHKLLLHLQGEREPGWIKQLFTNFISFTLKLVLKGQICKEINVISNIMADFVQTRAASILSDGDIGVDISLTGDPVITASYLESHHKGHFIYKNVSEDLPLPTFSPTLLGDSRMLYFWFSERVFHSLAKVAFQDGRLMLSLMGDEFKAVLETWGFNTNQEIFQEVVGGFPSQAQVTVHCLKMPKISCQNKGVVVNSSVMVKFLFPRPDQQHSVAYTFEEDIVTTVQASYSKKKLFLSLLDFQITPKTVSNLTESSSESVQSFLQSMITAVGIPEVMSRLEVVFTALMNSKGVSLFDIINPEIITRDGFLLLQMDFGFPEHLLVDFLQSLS
Test: In vitro CETP activity assay in human plasma (serum pools of differing triglyceride level)
Type: biochemical
Details: human serum pool, TG = 101.35 mg/dL (normal); read-out: CETP IC50 (nM) TG = 101.35 mg/dL
Sorting guide: entries reporting IC50 beneath 90 nM go in the MET pile, the rest go in the NOT MET pile.

{"columns": ["compound", "label-value"],
 "data": [
  ["Cc1cc(C)c2c(c1)[C@@H](N(Cc1cc(C(F)(F)F)cc(C(F)(F)F)c1)c1nnn(C)n1)CCCN2C[C@H]1CC[C@H](C(=O)O)CC1", "MET"],
  ["CC[C@@H]1C[C@H](N(Cc2cc(C(F)(F)F)cc(C(F)(F)F)c2)c2ncc(-c3cnn(C)c3)cn2)C[C@H](CC)N1C(=O)O[C@H]1CC[C@H](C(=O)O)CC1 [Example 19]", "MET"],
  ["CCN(C[C@H]1CC[C@H](CC(=O)O)CC1)c1cc(C)c(C(F)(F)F)cc1CN(Cc1cc(C(F)(F)F)cc(C(F)(F)F)c1)c1nnn(C)n1", "MET"],
  ["Cn1nnc(N(Cc2cc(C(F)(F)F)cc(C(F)(F)F)c2)Cc2cc3cc(F)c(F)cc3nc2N2CCC[C@@H]2[C@H]2CC[C@H](C(=O)O)CC2)n1", "MET"],
  ["CCN(C[C@H]1CC[C@H](CC(=O)O)CC1)c1ccc(C(F)(F)F)cc1CN(c1ncc(OCCS(C)(=O)=O)cn1)[C@@H](C)c1cc(C(F)(F)F)cc(C(F)(F)F)c1 [Example 57A]", "NOT MET"],
  ["CCN(C[C@H]1CC[C@H](CC(=O)O)CC1)c1ccc(C(F)(F)F)cc1CN(c1ncc(OCCS(C)(=O)=O)cn1)[C@H](C)c1cc(C(F)(F)F)cc(C(F)(F)F)c1 [Example 57B]", "NOT MET"],
  ["CC[C@@H]1C[C@H](N(Cc2cc(C(F)(F)F)cc(C(F)(F)F)c2)c2ncc(-c3cnn(C)c3)cn2)C[C@H](CC)N1C(=O)O[C@H]1C[C@H](C(=O)O)C1", "NOT MET"]
]}
